Values were extracted from patent US20220380471A1.

# system-tested: IgG control
# protocol: phage ELISA

- binder: "RWC4 (VHH, Camel VHH; tag not described; also called camel antibody RWC4) VHH: EVQLVESGGGSVQAGGSLRLSCVASEDSTSAMCMGWFRQAPGKEREGVACINPTGEVTWYGDSVKGRFTISRDTVKKIVYLQMNSLKPEDTAMYYCAARVTYGGDWSTDTDYEYWGQGTQVTVSS"
  ELISA signal: 0.0777
- binder: "RWD9 (VHH, Camel VHH; tag not described; also called camel antibody RWD9) VHH: EVQLVESGGGLVQPGGSLSVSCAASGFTFSVYWFYWVRQAPRQGLEWVSTIASNGSTYYSDSVKGRFTISRDNAKNTVYLQMNSLKPEDTAVYYCVSDPDYYSDYERAYKFWAQGTQVTVSS"
  ELISA signal: 0.0788
- binder: "RWH1 (VHH, Camel VHH; tag not described; also called camel antibody RWH1) VHH: AVQLVESGGGSVQAGGSLRLSCAASGMNLDNYVRGWLRQAPGSKCEFVSIIRRDGTTDYGDSVKGRFTISRDNAKNTVYLQMNSLKPDDTAVYYCAAIVVPRAAEYACDGLPYRGQGTQVTVSS"
  ELISA signal: 0.136
- binder: "RWB12 (VHH, Camel VHH; tag not described; also called camel antibody RWB12) VHH: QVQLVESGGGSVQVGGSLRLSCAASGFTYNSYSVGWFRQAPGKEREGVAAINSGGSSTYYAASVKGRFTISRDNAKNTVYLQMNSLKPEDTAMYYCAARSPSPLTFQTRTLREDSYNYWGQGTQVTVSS"
  ELISA signal: 0.164
- binder: "RWC3 (VHH, Camel VHH; tag not described; also called camel antibody RWC3) VHH: QVQLVESGGGLVQPGGSLSVSCAASGFTFSVYWFYWVRQAPRQGLEWVSTIASNGSTYYSDSVKGRFTISRDNAKNTVYLQMNSLKPEDTAVYYCVSDPDYYSDYERAYKFWAQGTQVTVSS"
  ELISA signal: 0.0888
- binder: "RWB2 (VHH, Camel VHH; tag not described; also called camel antibody RWB2) VHH: AVQLVDSGGGSVQAGGSLRLSCVVSGYAFSTYDMAWFRQAPGEKCEWVSTVTNNGRTFYADSVKGRFIISRDNAKNILYLQMNSLKPEDTAVYSCAAAGVRWRCASGGNEGTQVTVSS"
  ELISA signal: 0.0777
- binder: "RWG8 (VHH, Camel VHH; tag not described; also called camel antibody RWG8) VHH: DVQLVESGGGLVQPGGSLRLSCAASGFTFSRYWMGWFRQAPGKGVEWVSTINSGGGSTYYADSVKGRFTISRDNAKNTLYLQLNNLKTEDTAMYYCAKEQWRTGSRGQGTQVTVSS"
  ELISA signal: 0.101
- binder: "RWD5 (VHH, Camel VHH; tag not described; also called RWDS [sic]; camel antibody RWD5) VHH: AVQLVESGGGLVQPGGSLSVSCAASGFTFSVYWFYWVRQAPRQGLEWVSTIASNGSTYYSDSVKGRFTISRDNAKNTVYLQMNSLKPEDTAVYYCVSDPDYYSDYEREYKFWAQGTQVTVSS"
  ELISA signal: 0.0685
- binder: "RWG4 (VHH, Camel VHH; tag not described; also called camel antibody RWG4) VHH: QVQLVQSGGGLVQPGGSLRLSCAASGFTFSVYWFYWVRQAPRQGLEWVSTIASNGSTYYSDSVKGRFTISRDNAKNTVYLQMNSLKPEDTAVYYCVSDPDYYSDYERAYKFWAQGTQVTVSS"
  ELISA signal: 0.103
